meta.source: patent US8193191B2

- measured_on: rat GPR14 (U-II receptor) (Rattus norvegicus, UniProt P49684)
- Construct: expressed in transfected cells
- Sequence (P49684 1-386): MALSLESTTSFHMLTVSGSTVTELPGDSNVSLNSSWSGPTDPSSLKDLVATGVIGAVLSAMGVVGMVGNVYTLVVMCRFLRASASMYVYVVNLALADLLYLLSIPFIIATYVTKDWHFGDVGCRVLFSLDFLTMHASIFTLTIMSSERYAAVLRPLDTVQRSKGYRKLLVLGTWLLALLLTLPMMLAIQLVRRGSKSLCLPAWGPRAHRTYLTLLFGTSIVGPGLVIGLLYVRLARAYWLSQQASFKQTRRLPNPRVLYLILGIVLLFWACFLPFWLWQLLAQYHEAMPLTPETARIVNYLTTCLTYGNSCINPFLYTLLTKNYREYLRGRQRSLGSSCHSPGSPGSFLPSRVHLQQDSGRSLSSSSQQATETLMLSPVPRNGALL
- experiment: Rat UII Calcium Mobilization FLIPR Assay
- Format: cell-based
- recorded_conditions: CHO, 5 min, 10 μM compound; agonist-induced Ca2+ mobilization (FLIPR), CHO cells with rat UII receptor; read-out: % I @ 10
Note to self: values exactly at 90% are fulfilled. So inhibition at 10 µM at or above 90% is fulfilled, below is not fulfilled.

{"columns": ["molecule", "class_name"],
 "data": [
  ["O=C1c2cccc(N3CCN(Cc4ccccc4)CC3)c2C(=O)N1CCc1ccncc1 [Cpd 43]", "not fulfilled"],
  ["COc1ccc(CN2C(=O)c3cccc(N4CCN(Cc5cccc(F)c5)CC4)c3C2=O)cc1OC [Cpd 17]", "fulfilled"],
  ["COc1cc(CN2C(=O)c3cccc(N4CCN(CC(C)C)CC4)c3C2=O)cc(OC)c1OC [Cpd 60]", "not fulfilled"],
  ["COc1ccc(C(C)N2C(=O)c3cccc(N4CCN([C@H](C)c5ccccc5)CC4)c3C2=O)cc1OC (some centres unmarked) [Cpd 2]", "fulfilled"],
  ["COc1ccc(CN2C(=O)c3cccc(N4CCN(Cc5ccc(C)cc5)CC4)c3C2=O)cc1OC [Cpd 40]", "not fulfilled"],
  ["COc1ccc(CN2C(=O)c3cccc(OCCNCc4ccccc4)c3C2=O)cc1OC [Cpd 54]", "not fulfilled"],
  ["COc1ccc(CN2C(=O)c3cccc(N4CCN([C@@H](C)c5ccccc5)CC4)c3C2=O)cc1OC [Cpd 14]", "fulfilled"]
]}

====

Reported pKi values for a set of molecules
- measured_on: endogenous human UII receptor (Homo sapiens, UniProt Q9UKP6)
- Sequence (Q9UKP6 1-389): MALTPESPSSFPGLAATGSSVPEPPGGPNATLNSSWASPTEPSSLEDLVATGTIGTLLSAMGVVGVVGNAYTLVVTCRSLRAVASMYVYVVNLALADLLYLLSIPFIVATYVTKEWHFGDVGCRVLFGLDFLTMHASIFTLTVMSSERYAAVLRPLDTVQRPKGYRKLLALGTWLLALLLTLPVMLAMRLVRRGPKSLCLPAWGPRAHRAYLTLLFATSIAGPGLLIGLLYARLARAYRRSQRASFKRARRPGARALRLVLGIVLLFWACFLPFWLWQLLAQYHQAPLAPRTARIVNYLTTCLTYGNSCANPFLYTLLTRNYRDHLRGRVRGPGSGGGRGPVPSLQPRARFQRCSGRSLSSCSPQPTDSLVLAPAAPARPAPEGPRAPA
- experiment: Human Radioligand Binding Assay ((^125I)-U-II binding to human skeletal muscle myoblasts)
pKi: −log10 of the molar value.

{"columns": ["molecule", "modifier_sign", "pKi"],
 "data": [
  ["COc1ccc([C@@H](CCCNC(=O)[C@H]2CCCN2C(C)=O)N2C(=O)c3cccc(N4CCN([C@H](C)c5ccccc5)CC4)c3C2=O)cc1OC", "=", 7.15],
  ["COc1ccc([C@@H](CCCNC(=O)C(C#N)C(C)=O)N2C(=O)c3cccc(N4CCN([C@H](C)c5ccccc5)CC4)c3C2=O)cc1OC (stereo partly drawn)", "=", 7.57],
  ["COc1ccc(CN2C(=O)c3cccc(N4CCN(Cc5ccc(F)cc5)CC4)c3C2=O)cc1OC", "=", 5.35],
  ["COc1ccc([C@@H](CCCNS(=O)(=O)c2sc(NC(C)=O)nc2C)N2C(=O)c3cccc(N4CCN([C@H](C)c5ccccc5)CC4)c3C2=O)cc1OC", "<", 6.52],
  ["COc1ccc(CN2C(=O)c3cccc(N4CCN(C(C)c5ccccc5)CC4)c3C2=O)cc1OC (stereo not drawn)", "=", 5.92],
  ["CCC(=O)NCCC[C@H](c1ccc(OC)c(OC)c1)N1C(=O)c2cccc(N3CCN([C@H](C)c4ccccc4)CC3)c2C1=O", "=", 7.64],
  ["CCN1CCN(c2cccc3c2C(=O)N([C@H](CCCOCc2c(F)cccc2F)c2ccc(OC)c(OC)c2)C3=O)CC1", "<", 6.52],
  ["COc1ccc(C(CCCNS(=O)(=O)c2cn(C)c(C)n2)N2C(=O)c3cccc(N4CCN([C@H](C)c5ccccc5)CC4)c3C2=O)cc1OC (stereo partly drawn)", "=", 7.96],
  ["CCOCC(=O)NCCC[C@H](c1ccc(OC)c(OC)c1)N1C(=O)c2cccc(N3CCN([C@H](C)c4ccccc4)CC3)c2C1=O", "=", 7.40],
  ["COc1ccc([C@@H](CCCNS(=O)(=O)c2sc(C)nc2C)N2C(=O)c3cccc(N4CCN([C@H](C)c5ccccc5)CC4)c3C2=O)cc1OC", "=", 6.49],
  ["COc1ccc([C@@H](CCCNC(=O)c2cccn2C)N2C(=O)c3cccc(N4CCN([C@H](C)c5ccccc5)CC4)c3C2=O)cc1OC", "=", 6.80],
  ["COc1ccc(C(CCCNS(=O)(=O)c2c(C)nn(C)c2Cl)N2C(=O)c3cccc(N4CCN([C@H](C)c5ccccc5)CC4)c3C2=O)cc1OC (stereo partly drawn)", "=", 6.92],
  ["COc1ccc(CN2C(=O)c3cccc(N4CCN(Cc5ccoc5)CC4)c3C2=O)cc1OC", "=", 5.59],
  ["C/C=C(\\C)CN1CCN(c2cccc3c2C(=O)N(Cc2ccc(OC)c(OC)c2)C3=O)CC1", "=", 5.89],
  ["CCN1CCN(c2cccc3c2C(=O)N([C@H](CCCNC(=O)OC(C)(C)C)c2ccc(OC)c(OC)c2)C3=O)CC1", "=", 6.66],
  ["COc1ccc([C@@H](CCCNC(=O)C(F)(F)F)N2C(=O)c3cccc(N4CCN([C@H](C)c5ccccc5)CC4)c3C2=O)cc1OC", "=", 7.59],
  ["COc1ccc(C(CCCNS(=O)(=O)N(C)C)N2C(=O)c3cccc(N4CCN([C@H](C)c5ccccc5)CC4)c3C2=O)cc1OC (stereo partly drawn)", "=", 7.41],
  ["COc1ccc(CN2C(=O)c3cccc(N4CCN(CC5CCCC5)CC4)c3C2=O)cc1OC", "<", 5.00],
  ["COc1cc(CN2C(=O)c3cccc(N4CCN([C@H](C)c5ccccc5)CC4)c3C2=O)ccc1O", "=", 5.28],
  ["COc1ccc([C@@H](CCCNS(=O)(=O)c2cn(C)nc2C(F)(F)F)N2C(=O)c3cccc(N4CCN([C@H](C)c5ccccc5)CC4)c3C2=O)cc1OC", "=", 6.72],
  ["COc1ccc(C(CCCNS(C)(=O)=O)N2C(=O)c3cccc(N4CCN([C@H](C)c5ccccc5)CC4)c3C2=O)cc1OC (stereo partly drawn)", "=", 5.85],
  ["COc1ccc([C@@H](CCNS(=O)(=O)c2c(C)n[nH]c2C)N2C(=O)c3cccc(N4CCN([C@H](C)c5ccccc5)CC4)c3C2=O)cc1OC", "=", 6.92],
  ["COc1ccc([C@@H](CCNS(=O)(=O)Cc2ccccc2)N2C(=O)c3cccc(N4CCN([C@H](C)c5ccccc5)CC4)c3C2=O)cc1OC", "=", 6.85],
  ["COc1ccc(CC(c2ccc(OC)c(OC)c2)N2C(=O)c3cccc(N4CCN([C@H](C)c5ccccc5)CC4)c3C2=O)cc1OC (stereo partly drawn)", "=", 6.24],
  ["COc1ccc([C@@H](CCCNC(=O)c2cscn2)N2C(=O)c3cccc(N4CCN([C@H](C)c5ccccc5)CC4)c3C2=O)cc1OC", "=", 7.02],
  ["CCN1CCN(c2cccc3c2C(=O)N([C@H](CCCO)c2ccc(OC)c(OC)c2)C3=O)CC1", "=", 7.18],
  ["C=CCN1CCN(c2cccc3c2C(=O)N([C@H](CCCNS(=O)(=O)c2cccs2)c2ccc(OC)c(OC)c2)C3=O)CC1", "=", 6.77]
]}
